Target: T1, human IL-1RAcP on 293T/17-FR cells (human, UniProt Q9NPH3 21-570)
T1 sequence (looked up): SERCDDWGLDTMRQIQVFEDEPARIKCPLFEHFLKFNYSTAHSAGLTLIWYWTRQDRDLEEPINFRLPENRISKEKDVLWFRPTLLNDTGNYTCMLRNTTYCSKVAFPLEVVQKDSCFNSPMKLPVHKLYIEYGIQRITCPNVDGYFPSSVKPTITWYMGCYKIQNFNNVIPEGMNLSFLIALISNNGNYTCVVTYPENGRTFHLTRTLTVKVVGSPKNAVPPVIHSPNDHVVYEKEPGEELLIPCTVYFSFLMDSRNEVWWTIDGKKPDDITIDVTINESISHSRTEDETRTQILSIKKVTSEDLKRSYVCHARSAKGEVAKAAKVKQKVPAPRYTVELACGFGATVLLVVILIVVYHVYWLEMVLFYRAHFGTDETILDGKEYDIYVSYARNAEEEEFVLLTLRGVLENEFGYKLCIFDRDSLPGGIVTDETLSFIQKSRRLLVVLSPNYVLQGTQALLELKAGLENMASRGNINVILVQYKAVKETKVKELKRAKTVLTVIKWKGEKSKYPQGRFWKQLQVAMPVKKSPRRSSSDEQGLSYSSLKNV
Assay: cell-based or functional assay
Examples of binders with documented functional reporter gene assay (% inhibition), 5 µg/mL mAb follow.
Number only, in %; omit the unit.

Known functional reporter gene assay (% inhibition), 5 µg/mL mAb results, listed for orientation:
# binder, unit, observed_result
rows = [
    ("P013.S.01.B.H06 (antibody, V domains shown, rabbit monoclonal antibody; also called P013.A.00086.B03) VH: LEQSGGGGEGGLVKPGGSLELCCKASGFSLSSSYWICWVRQAPGKGLEWIGCIYVGSSGSTYYASWVSGRFTLSRDIDQSTGCLQLNSLTAADTAMYYCARDIYGSTNGYDLWGQGTLVTVSS VL: ALVMTQTPSPVSAAVGGTVTINCQASEDIYSNLAWFQQKPGQPPKLLIYQASKLASGVPSRFSGSGSGTEFTLTISGLQSDDVATYYCLGVGTYISGDGSLDNAFGGGTEVVVK", "%", 96),
    ("P013.S.01.B.G06 (antibody, V domains shown, rabbit monoclonal antibody; also called P013.A.00085.H05) VH: QSLEESGGRLVTPGTPLTLTCTASGFTISSYYMSWVRQAPGKGLEWIGGIATDGNTYYANWAKGRFTVSRTSTTVDLKVTSPTAEDTATYFCARGGPAYSRGTHYAMDLWGPGTLVTVSS VL: AYDMTQTPASVEVAVGGTVTIKCQASQSIYIYLAWYQQKPGQRPKQLIYDASKLASGVPSRFSGSGSGTEFTLTISGVESADAATYYCQQGATIWNVDNPFGGGTEVVVK", "%", 96),
]

*Q* Dear colleague, please send me the reported functional reporter gene assay (% inhibition), 5 µg/mL mAb for P013.S.02.B.C05 (antibody, V domains shown, rabbit monoclonal antibody; also called P013.A.00085.F10) VH: QSLEESGGRLVTPGTPLTLSCTASGFSLSTYYMSWVRQAPGKGLEWIGYMHVGGFPVYASWAKGRFTISKTSTTVDLKITSPTIEDTATYFCARDFGPPNWTLDLWGQGTLVTVSS VL: DVVMTQTPASVEAAVGGTVTIKCQASQSISSYCSWYQQKPGQPPKLLIYRASTLESGVPSRFKGSGSGTEFTLTISDLESADAATYYCQSSYYDLLGNGFGGGTEVVVK when you can.
*A* 52
